All figures here come from a collection of fitness landscapes (doi:10.1126/science.1257360).

Provide the reported enrichment ratio of each item.
B1: PhoQ; a variant is named by its letters at X, in order, P23837 (parent)
chain: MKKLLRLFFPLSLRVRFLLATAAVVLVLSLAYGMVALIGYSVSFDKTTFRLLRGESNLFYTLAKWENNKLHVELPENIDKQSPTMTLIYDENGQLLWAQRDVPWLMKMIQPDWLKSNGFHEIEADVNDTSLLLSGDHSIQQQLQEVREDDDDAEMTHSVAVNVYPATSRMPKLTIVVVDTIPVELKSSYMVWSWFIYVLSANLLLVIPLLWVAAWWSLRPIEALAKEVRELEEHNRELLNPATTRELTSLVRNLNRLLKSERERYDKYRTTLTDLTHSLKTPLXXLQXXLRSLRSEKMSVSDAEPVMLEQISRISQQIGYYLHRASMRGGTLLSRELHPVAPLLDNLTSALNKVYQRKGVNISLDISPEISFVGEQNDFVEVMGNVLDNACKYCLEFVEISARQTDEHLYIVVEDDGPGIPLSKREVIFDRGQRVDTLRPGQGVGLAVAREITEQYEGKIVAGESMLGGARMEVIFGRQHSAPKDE

- Variants of: B1
- Assay summary: enrichment ratio after two sorts for PhoP signalling (ratio (wild type AVST 3.29)); higher = more functional
- Measurement parameters: with PhoP (E. coli)
Over roughly 140,000 sequences, “enrichment ratio after two sorts for PhoP signalling” has its median near 0; the highest 2% begin near 11. The sample as a whole holds a higher share of the highest values than the screen did.

Q: Look up enrichment ratio for this variant: KYMC
Ans: ≤ 0.25

Q: Then QVDY ?
Ans: 11.3

Q: What do you have for KSWI ?
Ans: ≤ 0.25

Q: And EHHE ?
Ans: ≤ 0.25

Q: For LPHC then?
Ans: ≤ 0.25

Q: Further, for MLMR ?
Ans: ≤ 0.25

Q: // query: AHMH
Ans: ≤ 0.25

Q: // next record RGLS
Ans: ≤ 0.25

Q: Subsequent entry: VWKN
Ans: ≤ 0.25

Q: Subsequent entry: QLDN
Ans: ≤ 0.25

Q: Okay, and QEMC ?
Ans: ≤ 0.25

Q: # iterate: TGWI
Ans: 26.1

Q: Next record, please: TSHQ
Ans: 11.8

Q: Try this variant too: CFLN
Ans: ≤ 0.25

Q: Then NVSL ?
Ans: ≤ 0.25

Q: Next entry: AGMH
Ans: 26

Q: Follow-up item: KASL
Ans: ≤ 0.25

Q: Now try AGWR .
Ans: ≤ 0.25

Q: Do the same for LVHC please
Ans: 15

Q: Follow-up item: IPQW
Ans: ≤ 0.25

Q: Now try HCDL .
Ans: ≤ 0.25

Q: Now give it for TAMC too.
Ans: 14.6

Q: Same again, this time with YAMC
Ans: ≤ 0.25

Q: Next up: LNHC
Ans: ≤ 0.25

Q: // next record TGMH
Ans: 14.5

Q: Now this one: TASL
Ans: 15.1

Q: Lookup NEMC
Ans: ≤ 0.25

Q: Same for AYMH
Ans: ≤ 0.25

Q: Can you check GVQP next?
Ans: ≤ 0.25

Q: What about this variant? QLCK
Ans: ≤ 0.25

Q: Consider next the variant FVDN in the same way.
Ans: ≤ 0.25

Q: Now consider SCMC and answer again.
Ans: 12.6

Q: Request: LNRD
Ans: 0.657

Q: Query RQKT next
Ans: ≤ 0.25

Q: Okay, and GVLN ?
Ans: 10.1

Q: Next variant up: PVEK
Ans: ≤ 0.25

Q: Repeat for the following variant: SGSL
Ans: 11.8

Q: Again, but for SPMC
Ans: ≤ 0.25

Q: Also EHHF ?
Ans: ≤ 0.25

Q: Another variant to check: TVEK
Ans: 13.3

Q: Repeat with SEMC
Ans: 18

Q: Next up: RGMH
Ans: ≤ 0.25

Q: What do you get for NGLN ?
Ans: ≤ 0.25

Q: Also SLMC , if possible.
Ans: 3.3

Q: // query: TGLS
Ans: 14.9

Q: Repeat for the following variant: RHGF
Ans: ≤ 0.25
